assay: ATG_Oct_MLP_CIS: Attagene CIS-FACTORIAL HepG2 Assay for human Octamer-Binding Transcription Factor (Oct) (AID 2282993); conditions: HepG2 Attagene cis-factorial Oct reporter, mRNA; actives raise or lower the signal
Calls of active or inactive are those of the source. How the source made its calls: active means hit-call score of the fitted dose curve at least 0.9, where 1 is the maximum; inactive means score below 0.9.
The reply should name one outcome from active, inactive

Examples from the recorded data:
C=C(C)[C@H]1CC=C(C)CC1 : inactive
CCN(Cc1cccc(S(=O)(=O)O)c1)c1ccc(C(=C2C=CC(=[N+](CC)Cc3cccc(S(=O)(=O)[O-])c3)C=C2)c2ccccc2)cc1 : inactive
Nc1ncn([C@@H]2O[C@H](CO)[C@@H](O)[C@H]2O)c(=O)n1 : active
CC[C@H]1OC(=O)[C@H](C)[C@@H](O[C@H]2C[C@@](C)(OC)[C@@H](O)[C@H](C)O2)[C@H](C)[C@@H](O[C@@H]2O[C@H](C)C[C@H](N(C)C)[C@H]2O)[C@](C)(O)C[C@@H](C)C(=NOCOCCOC)[C@H](C)[C@@H](O)[C@]1(C)O : inactive
CC1=CC[C@H]2C[C@@H]1C2(C)C : inactive

Name the outcome recorded for `CCCCCCCOC(=O)CCC` in the assay.
inactive

Name the outcome recorded for `Cn1c(=O)[nH]c2ncn(C)c2c1=O` in the assay.
inactive

Name the outcome recorded for `Cc1oncc1C(=O)Nc1ccc(C(F)(F)F)cc1` in the assay.
inactive

Name the outcome recorded for `CC1=Nc2ccc3ccccc3c2C1(C)C` in the assay.
inactive

Name the outcome recorded for CC1OC1C1CCC2(C)OC2C1 (stereo not given) in the assay.
inactive

* * *

assay: ATG_XTT_Cytotoxicity: Cytotoxicity Assessment in the Attagene TRANS-FACTORIAL HepG2 Assay (AID 2283584)
Results filed as inconclusive are left out. Calls of active or inactive are those of the source. The calls were made as follows: active = hit-call score of the fitted dose curve at least 0.9, where 1 is the maximum; inconclusive = response in the unintended direction; inactive = score below 0.9.
The reply should name one outcome from active, inactive

CCO[Si](C)(OCC)OCC : inactive
CC(CC=O)c1ccccc1 (stereo not given) : inactive
Cc1cnc(NC(=O)C2=C(O)c3ccccc3S(=O)(=O)N2C)s1 : inactive
CCCCCCOc1cc(C)c(O)c(C)c1C : inactive
O=CN1CCCCC1 : inactive

Name the outcome recorded for `[Cl][Bi]([Cl])([c]1ccccc1)([c]1ccccc1)[c]1ccccc1` in the assay.
active

Name the outcome recorded for `C(=CC=Nc1ccccc1)C=CNc1ccccc1` in the assay.
inactive

Name the outcome recorded for `C1=CCCC1` in the assay.
inactive

Name the outcome recorded for `CCOc1nc(F)cc2nc(S(=O)(=O)Nc3c(Cl)cccc3C(=O)OC)nn12` in the assay.
inactive

Name the outcome recorded for `CC(=O)[C@H]1[C@H](C#N)C[C@H]2[C@@H]3CC=C4C[C@@H](O)CC[C@]4(C)[C@H]3CC[C@@]21C` in the assay.
inactive

Name the outcome recorded for `CC(C)(c1cc(Br)c(OCCO)c(Br)c1)c1cc(Br)c(OCCO)c(Br)c1` in the assay.
active

* * *

Assay: ATG_TA_CIS: Attagene CIS-FACTORIAL HepG2 Assay for human TA Basal Promoter (AID 2282964)
Settings: HepG2 Attagene CIS-factorial TA basal promoter reporter; actives raise or lower the signal
Description: ATG_CIS is a cell-based, multiplexed-readout assay that uses HepG2, a human liver cell line, with measurements taken at 24 hours after chemical dosing in a 24-well plate.ATG_TA_CIS is one of 52 assay component(s) measured or calculated from the ATG_CIS assay. […] This assay endpoint, ATG_TA_CIS, was analyzed with bidirectional fitting relative to DMSO as the negative control and baseline of activity. […]
Activity calls are given as the source filed them. How the source made its calls: active means hit-call score of the fitted dose curve at least 0.9, where 1 is the maximum; inactive means score below 0.9.
The reply should name one outcome from class 1 for active, class 0 for inactive

Examples from the recorded data:
CC(=O)CC(N)=O : class 0
CC(C)c1ccc2c(C(C)C)cc(C(C)C)c(S(=O)(=O)O)c2c1 : class 0
COc1cc(C)ccc1C(C)C : class 0

Name the outcome recorded for CC(C)(C)C1CCCCC1=O (centres undefined) in the assay.
class 0

Name the outcome recorded for `O=C(Nc1cccc(C(F)(F)F)c1)c1cc(Br)cc(Br)c1O` in the assay.
class 1

Name the outcome recorded for O=C(O)CC(C(=O)O)C(CC(=O)O)C(=O)O (centres undefined) in the assay.
class 0

Name the outcome recorded for `COCCOCCOCCOCCOC` in the assay.
class 0

Name the outcome recorded for `NC(=O)N=NC(N)=O` in the assay.
class 0

Name the outcome recorded for `C=COCCCC` in the assay.
class 0

Name the outcome recorded for `C(=CC=Nc1ccccc1)C=CNc1ccccc1` in the assay.
class 0

Name the outcome recorded for `O=C1C=CC(=O)O1` in the assay.
class 0

Name the outcome recorded for CC(CC=O)CCCC(C)(C)O (centres undefined) in the assay.
class 0

Name the outcome recorded for `O=S(=O)(Oc1ccc(Cl)cc1Cl)c1ccccc1` in the assay.
class 0

Name the outcome recorded for `O=C(Nc1ccccc1SSc1ccccc1NC(=O)c1ccccc1)c1ccccc1` in the assay.
class 0

Name the outcome recorded for `CCCCCCOc1cc(C)c(O)c(C)c1C` in the assay.
class 0

Name the outcome recorded for `Nc1cccc(C(F)(F)F)c1` in the assay.
class 0

Name the outcome recorded for `CCN(Cc1cccc(S(=O)(=O)O)c1)c1ccc(C(=C2C=CC(=[N+](CC)Cc3cccc(S(=O)(=O)[O-])c3)C=C2)c2ccccc2)cc1` in the assay.
class 0

* * *

experiment: ATG_GLI_CIS: Attagene CIS-FACTORIAL HepG2 Assay for human Zinc Finger Protein GLI1 (AID 2282945); conditions: HepG2, Attagene cis-factorial reporter mRNA, GLI element; actives raise or lower the signal
Calls of active or inactive are those of the source. Rule for the calls: active = hit-call score of the fitted dose curve at least 0.9, where 1 is the maximum; inactive = score below 0.9.
The reply should name one outcome from y (active), n (inactive)

O=[N+]([O-])C1(Br)COCOC1 : n
Cc1ccc(C(C)(C)C)cc1 : n
CC(C)(C)c1n[nH]c(=O)n(N)c1=O : n
CC(=O)OCCC1CCCCC1 : n
OCCN(CCO)c1ccccc1 : n
Cc1cc(C)c(C)c(O)c1 : n

Name the outcome recorded for `CC1(C)S[C@@H]2[C@H](NC(=O)COc3ccccc3)C(=O)N2[C@H]1C(=O)O` in the assay.
n

Name the outcome recorded for C=CC(C)(CCC=C(C)C)OC(=O)CC(C)C (configuration not stated) in the assay.
n

Name the outcome recorded for `COC(=O)c1c(C)cc(O)c(C)c1O` in the assay.
n

Name the outcome recorded for `COC(=O)/C=C/C(C)=C\C=C\C(C)=C\C=C\C=C(C)\C=C\C=C(C)\C=C\C(=O)O` in the assay.
n

Name the outcome recorded for `CCCCCCCC/C=C\CCCCCCCC(=O)OCCO` in the assay.
n

* * *

biological target: Cellular tumor antigen p53 (Homo sapiens) (UniProt P04637); test: TOX21_p53_BLA_p3_ratio: Tox21 HCT-116 p53 Agonism Beta-lactamase Assay, Ratio, Phase 3 (AID 2283596)
Sequence (P04637 whole entry, looked up): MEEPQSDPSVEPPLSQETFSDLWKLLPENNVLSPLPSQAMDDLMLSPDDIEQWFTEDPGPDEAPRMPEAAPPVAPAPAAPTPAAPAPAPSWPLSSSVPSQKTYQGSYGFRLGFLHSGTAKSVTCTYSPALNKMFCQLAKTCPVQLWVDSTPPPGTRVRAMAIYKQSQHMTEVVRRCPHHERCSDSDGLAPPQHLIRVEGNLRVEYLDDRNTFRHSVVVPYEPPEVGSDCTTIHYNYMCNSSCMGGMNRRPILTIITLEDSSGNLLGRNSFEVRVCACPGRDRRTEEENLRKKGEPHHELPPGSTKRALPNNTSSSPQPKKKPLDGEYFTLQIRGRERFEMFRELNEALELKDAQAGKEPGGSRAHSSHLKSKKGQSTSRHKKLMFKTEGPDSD
Inconclusive results are not listed. The source made the active and inactive calls. The calls were made as follows: active = hit-call score of the fitted dose curve at least 0.9, where 1 is the maximum; inconclusive = response in the unintended direction; inactive = score below 0.9.
The reply should name one outcome from active, inactive

Examples from the recorded data:
ON(Cc1ccccc1)Cc1ccccc1 : inactive
CCC(C)OC(=O)c1ccc(O)cc1 (stereo not given) : inactive
CCCCCCCCC(=O)OCC : inactive
Cc1cc(C)c(C)cc1C : inactive
O=c1c2ccccc2nnn1CCl : inactive
CC(=O)Oc1ccc(C(C)=O)cc1 : inactive

Name the outcome recorded for `C[C@]12C=CC(=O)C=C1CC[C@@H]1[C@@H]2[C@@H](O)C[C@@]2(C)[C@H]1CC[C@]2(O)C(=O)CO` in the assay.
inactive

Name the outcome recorded for `O=C(O)Cc1c(Cl)ccc(Cl)c1Cl` in the assay.
inactive

Name the outcome recorded for `CCCCCCCCCCCCCCCCCC#N` in the assay.
inactive

Name the outcome recorded for `CCCCCCCCCCCCCOP(=O)(O)O` in the assay.
active

Name the outcome recorded for CCC(Cc1ccccc1)(C(=O)c1ccc(N2CCOCC2)cc1)N(C)C (stereo not given) in the assay.
inactive

* * *

assay: ATG_NFI_CIS: Attagene CIS-FACTORIAL HepG2 Assay for human Nuclear Factor I (NFI) (AID 2282989); settings: HepG2 cis-regulatory reporter, NFI response element transcription; actives raise or lower the signal
Calls of active or inactive are those of the source. How the source made its calls: active means hit-call score of the fitted dose curve at least 0.9, where 1 is the maximum; inactive means score below 0.9.
Attribute measured: AC50

Examples with answers:
CCOC(=O)c1ccccc1C(=C1C=C(Br)C(=O)C(Br)=C1)c1cc(Br)c(O)c(Br)c1 : 22.4 µM (active)
[Cl][Bi]([Cl])([c]1ccccc1)([c]1ccccc1)[c]1ccccc1 : inactive
C=C[Si](OC(C)=O)(OC(C)=O)OC(C)=O : inactive
COCCOCCOCCOCCOC : inactive
[Cl][In]([Cl])[Cl] : inactive
O=C1C=CC(=O)O1 : inactive
CCCCC(CC)COC(=O)c1ccccc1O (configuration not stated) : inactive
CCN(Cc1cccc(S(=O)(=O)O)c1)c1ccc(C(=C2C=CC(=[N+](CC)Cc3cccc(S(=O)(=O)[O-])c3)C=C2)c2ccccc2)cc1 : inactive
CCCCC(CC)COCC1CO1 (configuration not stated) : inactive
C=CCOCC(O)CCl (configuration not stated) : inactive

Give AC50 for each listed item.
1. C[Si](C)(C)O[Si](O)(O)O
2. C[C@]12CCC(=O)C=C1CC[C@@H]1[C@@H]2C(=O)C[C@@]2(C)[C@H]1CC[C@]2(O)C(=O)CO

1. inactive
2. inactive
